Recorded relative viability values for a group of compounds are listed next.
system: LOU-NH91; test: relative viability (nuclei count vs DMSO), 5 days (fraction); higher = more cells survive; conditions: first compound 0.03162 µM
Give only the figure.

Please review the entries below; each comes with its answer.
>  <Compound>
Cc1cn(-c2cc(NC(=O)c3ccc(C)c(Nc4nccc(-c5cccnc5)n4)c3)cc(C(F)(F)F)c2)cn1 [Nilotinib] + CS(=O)(=O)N1CCN(Cc2cc3nc(-c4cccc5[nH]ncc45)nc(N4CCOCC4)c3s2)CC1 [Pictilisib] (partner 1 µM)

>  <Measure>
relative viability

>  <Numeric Value>
0.483

$$$$
>  <Compound>
Cc1cn(-c2cc(NC(=O)c3ccc(C)c(Nc4nccc(-c5cccnc5)n4)c3)cc(C(F)(F)F)c2)cn1 [Nilotinib] + O=C(c1cc(Cc2n[nH]c(=O)c3ccccc23)ccc1F)N1CCN(C(=O)C2CC2)CC1 [Olaparib] (partner 8 µM)

>  <Measure>
relative viability

>  <Numeric Value>
0.94

$$$$
>  <Compound>
Cc1cn(-c2cc(NC(=O)c3ccc(C)c(Nc4nccc(-c5cccnc5)n4)c3)cc(C(F)(F)F)c2)cn1 [Nilotinib] + Cc1nc(NC(=O)N2CCC[C@H]2C(N)=O)sc1-c1ccnc(C(C)(C)C(F)(F)F)c1 [Alpelisib] (partner 2 µM)

>  <Measure>
relative viability

>  <Numeric Value>
0.707

$$$$

As a next step, examine the compound that follows.
Please list relative viability recorded for the compound Cc1cn(-c2cc(NC(=O)c3ccc(C)c(Nc4nccc(-c5cccnc5)n4)c3)cc(C(F)(F)F)c2)cn1 [Nilotinib] + CC1(C)CCC(c2ccc(Cl)cc2)=C(CN2CCN(c3ccc(C(=O)NS(=O)(=O)c4ccc(N[C@H](CCN5CCOCC5)CSc5ccccc5)c(S(=O)(=O)C(F)(F)F)c4)cc3)CC2)C1 [Navitoclax] (partner 0.5 µM)
0.608

---

tested on: EKVX; assay: relative viability (nuclei count vs DMSO), 5 days (fraction); higher = more cells survive; details: first compound 0.006325 µM
Measure: relative viability
Lab note: record just the number, no unit beside it.

Consider the following illustrative entries.
>  <Compound>
CCNC(=O)c1noc(-c2cc(C(C)C)c(O)cc2O)c1-c1ccc(CN2CCOCC2)cc1 [Luminespib] + O=C(c1cc(Cc2n[nH]c(=O)c3ccccc23)ccc1F)N1CCN(C(=O)C2CC2)CC1 [Olaparib] (partner 8 µM)

>  <relative viability>
0.881

$$$$
>  <Compound>
CCNC(=O)c1noc(-c2cc(C(C)C)c(O)cc2O)c1-c1ccc(CN2CCOCC2)cc1 [Luminespib] + CC(C)C[C@H](NC(=O)[C@H](Cc1ccccc1)NC(=O)c1cnccn1)B(O)O [Bortezomib] (partner 0.002 µM)

>  <relative viability>
1.03

$$$$
>  <Compound>
CCNC(=O)c1noc(-c2cc(C(C)C)c(O)cc2O)c1-c1ccc(CN2CCOCC2)cc1 [Luminespib] + CS(=O)(=O)CCNCc1ccc(-c2ccc3ncnc(Nc4ccc(OCc5cccc(F)c5)c(Cl)c4)c3c2)o1 [Lapatinib] (partner 2 µM)

>  <relative viability>
0.228

$$$$

# evaluate next
In one line, give reported relative viability of the entry CCNC(=O)c1noc(-c2cc(C(C)C)c(O)cc2O)c1-c1ccc(CN2CCOCC2)cc1 [Luminespib] + O=C(CCCCCCC(=O)Nc1ccccc1)NO [Vorinostat] (partner 1 µM) .
0.684
